Target: Recombinant human JAK3 enzyme (JAK3 kinase region; Ala795-Ser1124) (Homo sapiens, UniProt P52333)
Sequence (P52333 795-1124): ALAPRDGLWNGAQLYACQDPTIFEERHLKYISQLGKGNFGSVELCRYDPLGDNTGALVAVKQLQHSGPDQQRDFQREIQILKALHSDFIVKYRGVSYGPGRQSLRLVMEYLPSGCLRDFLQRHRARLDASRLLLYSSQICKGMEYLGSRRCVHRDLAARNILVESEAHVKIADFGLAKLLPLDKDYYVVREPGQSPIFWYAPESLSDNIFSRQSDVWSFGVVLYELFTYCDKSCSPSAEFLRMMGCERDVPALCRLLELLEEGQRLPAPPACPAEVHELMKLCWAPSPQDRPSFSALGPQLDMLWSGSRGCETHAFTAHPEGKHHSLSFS
Experiment: JAK3 Kinase Assay (Kinase-Glo luminescent, ATP consumption)
Conditions: read-out: Inhibition rate (%) of JAK3 kinase activity
endpoint: inhibition at 0.1 µM (%)

I. CC(C)N1CCN(c2ccc(Nc3cc(NCc4c(F)cccc4F)c(C(N)=O)cn3)cc2)CC1 [Example 153]
II. N#CCC(=O)N1CCCN(c2ccc(Nc3cc(NCc4ccccc4)c(C(N)=O)cn3)cc2)CC1 [Example 268]
-- ask Which has the smaller recorded inhibition at 0.1 µM, I or II ? In your reply, give the label of the chosen option.
-- reply II

###

Biological target: Recombinant human JAK3 enzyme (JAK3 kinase region; Ala795-Ser1124) (Homo sapiens)
Assay: JAK3 Kinase Assay (Kinase-Glo luminescent, ATP consumption)
Settings: read-out: Inhibition rate (%) of JAK3 kinase activity
endpoint: inhibition at 0.1 µM (%)

compound="CCN(CC)C(=O)N1CCC(Nc2ccc(Nc3cc(NCc4ccccc4)c(C(N)=O)cn3)cc2)CC1 [Example 290]" result_value=71
compound="CS(=O)(=O)N1CCN(c2ccc(Nc3cc(NCc4cc(F)cc(F)c4)c(C(N)=O)cn3)cc2)CC1 [Example 293]" result_value=61
compound="CS(=O)(=O)Nc1ccc(Nc2cc(NCc3cccc([N+](=O)[O-])c3)c(C(N)=O)cn2)cc1 [Example 160]" result_value=66
compound="COc1ccccc1CNc1cc(Nc2ccc(N3CCOCC3)cc2)ncc1C(N)=O [Example 73]" result_value=56
compound="COc1ccc(F)cc1CNc1cc(Nc2ccc(N3CCOCC3)cc2)ncc1C(N)=O [Example 99]" result_value=80
compound="C[C@@H]1CN(c2ccc(Nc3cc(NCc4cccc(F)c4F)c(C(N)=O)cn3)cc2)C[C@H](C)N1 [Example 140]" result_value=62
compound="NC(=O)c1cnc(Nc2ccc(N3CCOCC3)cc2)cc1NCc1cccc([N+](=O)[O-])c1 [Example 102]" result_value=53
compound="C[C@@H]1CN(c2cccc(Nc3cc(NCc4cc(F)cc(F)c4)c(C(N)=O)cn3)c2)C[C@H](C)N1 [Example 144]" result_value=61
compound="NC(=O)c1cnc(Nc2ccc(N3CCOCC3)cc2)cc1NCc1c(F)cccc1F [Example 94]" result_value=96
compound="COCCNS(=O)(=O)c1ccc(Nc2cc(NCc3cc(F)cc(F)c3)c(C(N)=O)cn2)cc1 [Example 330]" result_value=59

a. NC(=O)c1cnc(Nc2ccc(N3CCCNCC3)cc2)cc1NCc1ccccc1 [Example 226]
b. NC(=O)c1cnc(Nc2cccc(N3CCOCC3)c2)cc1NCc1cc(F)cc(F)c1 [Example 131]
-- ask Which has the smaller recorded inhibition at 0.1 µM, a or b ? In your reply, give the label of the chosen option.
-- reply a

###

Molecular target: Recombinant human JAK3 enzyme (JAK3 kinase region; Ala795-Ser1124) (Homo sapiens, UniProt P52333)
Test: JAK3 Kinase Assay (Kinase-Glo luminescent, ATP consumption)
Settings: read-out: Inhibition rate (%) of JAK3 kinase activity
Structures can show the parent of a compound that is named as a salt.
endpoint: inhibition at 0.1 µM (%)

molecule="NC(=O)c1cnc(Nc2ccc(NC(=O)C3CCNCC3)cc2)cc1NCc1ccccc1 [Example 314, hydrochloride]" result_units=% result_value=60
molecule=COc1cc(Nc2cc(NCc3cc(F)cc(F)c3)c(C(N)=O)cn2)ccc1N1CCOCC1 result_units=% result_value=92
molecule=NC(=O)c1cnc(Nc2ccc(NCCO)cc2)cc1NCc1cc(F)cc(F)c1 result_units=% result_value=72
molecule=CCN(CC)CCN1CCN(c2ccc(Nc3cc(NCc4ccccc4)c(C(N)=O)cn3)cc2)CC1 result_units=% result_value=83
molecule=N#CCC(=O)N1CCN(c2ccc(Nc3cc(NCc4cc(F)cc(F)c4)c(C(N)=O)cn3)cc2)CC1 result_units=% result_value=92
molecule=CC(C)NC(=O)N1CCN(c2ccc(Nc3cc(NCc4cccc([N+](=O)[O-])c4)c(C(N)=O)cn3)cc2)CC1 result_units=% result_value=63
molecule=N#CCCC1CCN(c2ccc(Nc3cc(NCc4ccccc4)c(C(N)=O)cn3)cc2)CC1 result_units=% result_value=65
molecule=CCN(CC)CCN1CCN(c2ccc(Nc3cc(NCc4cccc([N+](=O)[O-])c4)c(C(N)=O)cn3)cc2)CC1 result_units=% result_value=82

###

endpoint: melting point

Examples from the recorded data:
compound_smiles=COc1cc(Nc2cc(NCc3cc(F)cc(F)c3)c(C(N)=O)cn2)ccc1N1CCOCC1 result_value="229.6 to 230 °C (dec.)"
compound_smiles=CNCCN1CCN(c2ccc(Nc3cc(NCc4cc(F)cc(F)c4)c(C(N)=O)cn3)cc2)CC1 result_value="113 to 120 °C (dec.)"
compound_smiles=NCCN1CCN(c2ccc(Nc3cc(NCc4cc(F)cc(F)c4)c(CC(N)=O)cn3)cc2)CC1 result_value="190 to 194 °C (dec.)"

Reported melting point of NC(=O)c1cnc(Nc2cccc(N3CCOCC3)c2)cc1NCc1cc(F)cc(F)c1 : 197 to 198 °C (dec.)

Reported melting point of NC(=O)c1cnc(Nc2ccc(NC3CCNCC3)cc2)cc1NCc1ccccc1 : 169 to 172 °C (dec.)

Reported melting point of NC(=O)c1cnc(Nc2ccc(N3CCC(=O)CC3)cc2)cc1NCc1cc(F)cc(F)c1 : 223 to 226 °C (dec.)

Reported melting point of CS(=O)(=O)Nc1ccc(Nc2cc(NCc3cc(F)cc(F)c3)c(C(N)=O)cn2)cc1 : 236 to 238 °C (dec.)

Reported melting point of CC(C)C(=O)N1CCN(c2ccc(Nc3cc(NCc4ccccc4)c(C(N)=O)cn3)cc2)CC1 : 218 to 220 °C (dec.)

Reported melting point of CCN(CC)CCN1CCN(c2ccc(Nc3cc(NCc4cccc([N+](=O)[O-])c4)c(C(N)=O)cn3)cc2)CC1 : 165 to 166 °C

Reported melting point of CC(C)S(=O)(=O)N1CCN(c2ccc(Nc3cc(NCc4cc(F)cc(F)c4)c(C(N)=O)cn3)cc2)CC1 : 239 to 242 °C (dec.)

###

Reported melting point values for a set of compounds

compound_smiles=COC1CCN(c2ccc(Nc3cc(NCc4cc(F)cc(F)c4)c(C(N)=O)cn3)cc2)CC1 endpoint="melting point" result_value="202.9 to 203.3 °C (dec.)"
compound_smiles=Cc1cc(Nc2cc(NCc3cc(F)cc(F)c3)c(C(N)=O)cn2)ccc1N1CCOCC1 endpoint="melting point" result_value="223 to 224 °C (dec.)"
compound_smiles=NCCCc1ccc(Nc2cc(NCc3cc(F)cc(F)c3)c(C(N)=O)cn2)cc1 endpoint="melting point" result_value="180 to 181 °C"

Turning now to a further compound:
Reported melting point of CC(C)NC(=O)N1CCC(Nc2ccc(Nc3cc(NCc4ccccc4)c(C(N)=O)cn3)cc2)CC1 : 166 to 167 °C

###

Target: Recombinant human JAK3 enzyme (JAK3 kinase region; Ala795-Ser1124) (Homo sapiens, UniProt P52333)
Experiment: JAK3 Kinase Assay (Kinase-Glo luminescent, ATP consumption)
Conditions: read-out: Inhibition rate (%) of JAK3 kinase activity
endpoint: inhibition at 0.1 µM (%)

compound_smiles=NC(=O)c1cnc(Nc2ccc(N3CCNCC3)cc2)cc1NCc1c(F)cccc1F result_value=81
compound_smiles=CCN(CC)CCS(=O)(=O)Nc1ccc(Nc2cc(NCc3cc(F)cc(F)c3)c(C(N)=O)cn2)cc1 result_value=78
compound_smiles=NC(=O)c1cnc(Nc2ccc(N3CCOCC3)cc2)cc1NCc1ccccc1Cl result_value=79

###

Molecular target: Recombinant human JAK3 enzyme (JAK3 kinase region; Ala795-Ser1124) (Homo sapiens)
Test: JAK3 Kinase Assay (Kinase-Glo luminescent, ATP consumption)
Conditions: read-out: Inhibition rate (%) of JAK3 kinase activity
Where a name gives a salt, the structure may show the parent alone.
endpoint: inhibition at 0.1 µM (%)

compound=CC(C)S(=O)(=O)Nc1ccc(Nc2cc(NCc3ccccc3)c(C(N)=O)cn2)cc1 system_name="Recombinant human JAK3 enzyme (JAK3 kinase region; Ala795-Ser1124) (Homo sapiens)" result_value=77
compound=NC(=O)c1cnc(Nc2ccc(N3CCNCC3)cc2)cc1NCc1ccccc1 system_name="Recombinant human JAK3 enzyme (JAK3 kinase region; Ala795-Ser1124) (Homo sapiens)" result_value=65
compound=NC(=O)c1cnc(Nc2ccc(NC3CCNCC3)cc2)cc1NCc1ccccc1 system_name="Recombinant human JAK3 enzyme (JAK3 kinase region; Ala795-Ser1124) (Homo sapiens)" result_value=74
compound=Cc1cccc(CNc2cc(Nc3ccc(N4CCOCC4)cc3)ncc2C(N)=O)c1 system_name="Recombinant human JAK3 enzyme (JAK3 kinase region; Ala795-Ser1124) (Homo sapiens)" result_value=55
compound=COCCNc1ccc(Nc2cc(NCc3cc(F)cc(F)c3)c(C(N)=O)cn2)cc1 system_name="Recombinant human JAK3 enzyme (JAK3 kinase region; Ala795-Ser1124) (Homo sapiens)" result_value=74
compound=CC(C)N1CCN(c2ccc(Nc3cc(NCc4cc(F)cc(F)c4)c(C(N)=O)cn3)cc2)CC1 system_name="Recombinant human JAK3 enzyme (JAK3 kinase region; Ala795-Ser1124) (Homo sapiens)" result_value=69
compound=NC(=O)c1cnc(Nc2ccc(NCCN3CCOCC3)cc2)cc1NCc1ccccc1 system_name="Recombinant human JAK3 enzyme (JAK3 kinase region; Ala795-Ser1124) (Homo sapiens)" result_value=75
compound=N#CCCCN1CCN(c2ccc(Nc3cc(NCc4cccc([N+](=O)[O-])c4)c(C(N)=O)cn3)cc2)CC1 system_name="Recombinant human JAK3 enzyme (JAK3 kinase region; Ala795-Ser1124) (Homo sapiens)" result_value=77
compound=NC(=O)c1cnc(Nc2ccc(N3CCOCC3)cc2)cc1NCc1cc(F)ccc1F system_name="Recombinant human JAK3 enzyme (JAK3 kinase region; Ala795-Ser1124) (Homo sapiens)" result_value=86
compound=CCN(CC)CCN1CCN(c2cccc(Nc3cc(NCc4cc(F)cc(F)c4)c(C(N)=O)cn3)c2)CC1 system_name="Recombinant human JAK3 enzyme (JAK3 kinase region; Ala795-Ser1124) (Homo sapiens)" result_value=57
compound=CN1CCC(Oc2ccc(Nc3cc(NCc4ccccc4)c(C(N)=O)cn3)cc2)CC1 system_name="Recombinant human JAK3 enzyme (JAK3 kinase region; Ala795-Ser1124) (Homo sapiens)" result_value=72
compound=CC(C)NC(=O)N1CCC(Nc2ccc(Nc3cc(NCc4ccccc4)c(C(N)=O)cn3)cc2)CC1 system_name="Recombinant human JAK3 enzyme (JAK3 kinase region; Ala795-Ser1124) (Homo sapiens)" result_value=79
compound=CC(C)NC(=O)N1CCN(c2ccc(Nc3cc(NCc4ccccc4)c(C(N)=O)cn3)cc2)CC1 system_name="Recombinant human JAK3 enzyme (JAK3 kinase region; Ala795-Ser1124) (Homo sapiens)" result_value=79
compound="NC(=O)c1cnc(Nc2ccc(NC(=O)[C@@H]3CCCN3)cc2)cc1NCc1cc(F)cc(F)c1 [Example 317, hydrochloride]" system_name="Recombinant human JAK3 enzyme (JAK3 kinase region; Ala795-Ser1124) (Homo sapiens)" result_value=62
compound=NC(=O)c1cnc(Nc2ccc(N3CCC(O)CC3)cc2)cc1NCc1ccccc1Cl system_name="Recombinant human JAK3 enzyme (JAK3 kinase region; Ala795-Ser1124) (Homo sapiens)" result_value=93
compound=NC(=O)c1cnc(Nc2ccc(N3CCC(O)CC3)cc2)cc1NCc1cccc(F)c1F system_name="Recombinant human JAK3 enzyme (JAK3 kinase region; Ala795-Ser1124) (Homo sapiens)" result_value=85
compound=NC(=O)c1cnc(Nc2ccc(N3CCNCC3)cc2)cc1NCc1cc(F)cc(F)c1 system_name="Recombinant human JAK3 enzyme (JAK3 kinase region; Ala795-Ser1124) (Homo sapiens)" result_value=78
compound=CC(C)N1CCN(c2ccc(Nc3cc(NCc4ccccc4)c(C(N)=O)cn3)cc2)CC1 system_name="Recombinant human JAK3 enzyme (JAK3 kinase region; Ala795-Ser1124) (Homo sapiens)" result_value=78
compound=NC(=O)c1cnc(Nc2ccc(N3CCOCC3)cc2)cc1NCc1cc(F)cc(F)c1 system_name="Recombinant human JAK3 enzyme (JAK3 kinase region; Ala795-Ser1124) (Homo sapiens)" result_value=92
compound=CCN(CC)CC(=O)N1CCN(c2ccc(Nc3cc(NCc4cc(F)cc(F)c4)c(C(N)=O)cn3)cc2)CC1 system_name="Recombinant human JAK3 enzyme (JAK3 kinase region; Ala795-Ser1124) (Homo sapiens)" result_value=96
compound=CCN(CC)CC(=O)N1CCC(c2ccc(Nc3cc(NCc4ccccc4)c(C(N)=O)cn3)cc2)CC1 system_name="Recombinant human JAK3 enzyme (JAK3 kinase region; Ala795-Ser1124) (Homo sapiens)" result_value=70
compound=CCN(CC)CC(=O)N1CCN(c2ccc(Nc3cc(NCc4cccc([N+](=O)[O-])c4)c(C(N)=O)cn3)cc2)CC1 system_name="Recombinant human JAK3 enzyme (JAK3 kinase region; Ala795-Ser1124) (Homo sapiens)" result_value=68
